# System: SARS-CoV-2 Wuhan Hu-1 strain
# Run parameters: 48 h
Bridges are numbered along the chain shown (N, C = ends).
Attribute measured: IC50 (nM)
Write the number in nM without appending the unit.

Item: VAACNLPIVRGPCRAFIQLWAFDAVKGKCVLFPYGGCQGNGNKFYSEKECREYCGVPGDGD (disulfide 4-54, 13-37, 29-50) [Trypstatin] | System: SARS-CoV-2 Wuhan Hu-1 strain | IC50: 26

Reference source for all entries: patent EP4545091A1
